# Assay System: UniProt Q9Y6A2
# Sequence (Q9Y6A2 whole entry): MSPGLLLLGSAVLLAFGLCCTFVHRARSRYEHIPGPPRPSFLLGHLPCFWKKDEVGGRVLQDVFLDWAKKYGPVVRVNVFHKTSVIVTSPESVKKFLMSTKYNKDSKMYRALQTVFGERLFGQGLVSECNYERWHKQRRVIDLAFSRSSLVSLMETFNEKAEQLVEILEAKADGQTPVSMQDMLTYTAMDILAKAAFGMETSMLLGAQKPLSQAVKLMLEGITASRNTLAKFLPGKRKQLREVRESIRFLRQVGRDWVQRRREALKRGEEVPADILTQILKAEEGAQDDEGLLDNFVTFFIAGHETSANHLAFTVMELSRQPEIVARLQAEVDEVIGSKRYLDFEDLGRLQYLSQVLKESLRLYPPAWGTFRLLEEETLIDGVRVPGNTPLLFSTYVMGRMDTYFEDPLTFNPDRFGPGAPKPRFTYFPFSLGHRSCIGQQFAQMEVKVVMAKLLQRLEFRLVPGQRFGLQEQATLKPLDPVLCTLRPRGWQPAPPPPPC
pIC50: −log10 of the molar value.
Answer F if pIC50 is under 7, and T if it is 7 or more.

* O=C(Nc1ccccc1)C1CCN(c2cncnc2-c2ccccc2)CC1 | T
* CCNC(=O)C1CCN(c2cncnc2-c2ccccc2)CC1 | T
* CCN(C)C(=O)C1CCN(c2cncnc2-c2ccccc2)CC1 | T
* S=C(NC1CCCCC1)N1CCC(c2cnc[nH]2)CC1 [THIOPERAMIDE] | F
* Cc1cnn(-c2ccncc2N2CCC(C(=O)N(C)C)CC2)c1 | T

Shift focus to the following entry.
Given CN(C)C(=O)C1CCN(c2cnccc2-n2cc(Cl)cn2)CC1 , state whether its pIC50 is at least 7.
T

----------
# Assay System: CYP2D6 (Homo sapiens, UniProt P10635)
# Sequence (P10635 whole entry): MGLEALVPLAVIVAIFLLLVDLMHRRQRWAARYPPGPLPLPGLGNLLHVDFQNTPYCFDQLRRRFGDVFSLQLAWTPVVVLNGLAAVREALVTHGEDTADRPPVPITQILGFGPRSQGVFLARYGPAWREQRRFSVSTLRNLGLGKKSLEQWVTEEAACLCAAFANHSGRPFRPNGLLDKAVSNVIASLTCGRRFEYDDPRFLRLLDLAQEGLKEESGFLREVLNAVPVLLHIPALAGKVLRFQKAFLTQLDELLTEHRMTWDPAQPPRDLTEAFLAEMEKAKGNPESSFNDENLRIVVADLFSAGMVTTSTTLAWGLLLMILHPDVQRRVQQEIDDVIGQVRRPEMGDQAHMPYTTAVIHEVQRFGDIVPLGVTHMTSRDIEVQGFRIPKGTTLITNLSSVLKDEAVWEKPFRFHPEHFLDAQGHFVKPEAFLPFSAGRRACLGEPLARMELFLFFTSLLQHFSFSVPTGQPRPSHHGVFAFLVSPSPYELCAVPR
# Procedure Text: Inhibition of human CYP2D6 at 10 uM incubated for 60 mins by LC/MS/MS analysis relative to control
# Type: ADME
Experimental Endpoint: inhibition at 1 h, 10 µM (%)
Number in %, nothing else.

Give CYP2D6 (Homo sapiens, UniProt P10635) inhibition at 1 h, 10 µM for the following compound: Cc1cnn(-c2ccncc2N2CCC(C(=O)N(C)C)CC2)c1
3

----------
# Assay System: UniProtKB P08684
# Procedure Text: Inhibition of human CYP3A4 at 10 uM incubated for 60 mins by LC/MS/MS analysis relative to control
# Type: ADME
Parameter inhibition at 1 h, 10 µM: see the listing below.
Number in %, nothing else.

• CN(C)C(=O)C1CCN(c2cncnc2-c2ccccc2)CC1 = 28
• CN(C)C(=O)C1CCN(c2cnccc2-n2cc(Cl)cn2)CC1 = 19
• O=C(NC1CC1)C1CCN(c2cnccc2-c2ccccn2)CC1 = 29
• CCNC(=O)C1CCN(c2cncnc2-c2ccccc2)CC1 = 42
• CN(C)C(=O)C1CCN(c2cnccc2-n2cccn2)CC1 = 1

Give UniProtKB P08684 inhibition at 1 h, 10 µM for the following molecule: O=C(NC1CC1)C1CCN(c2cnccc2-c2ccccc2)CC1
83

Give UniProtKB P08684 inhibition at 1 h, 10 µM for the following molecule: CN(C)C(=O)C1CCN(c2cnccc2-n2cc(Br)cn2)CC1
31

Give UniProtKB P08684 inhibition at 1 h, 10 µM for the following molecule: Cc1ccn(-c2ccncc2N2CCC(C(=O)N(C)C)CC2)n1
5

Give UniProtKB P08684 inhibition at 1 h, 10 µM for the following molecule: CCN(C)C(=O)C1CCN(c2cncnc2-c2ccccc2)CC1
35

Give UniProtKB P08684 inhibition at 1 h, 10 µM for the following molecule: CN(C)C(=O)C1CCN(c2cncnc2-c2ccc(F)cc2)CC1
37

Give UniProtKB P08684 inhibition at 1 h, 10 µM for the following molecule: Cc1cnn(-c2ccncc2N2CCC(C(=O)N(C)C)CC2)c1
21

Give UniProtKB P08684 inhibition at 1 h, 10 µM for the following molecule: CN(C)C(=O)C1CCN(c2cnccc2-n2cc(C(F)(F)F)cn2)CC1
47

Give UniProtKB P08684 inhibition at 1 h, 10 µM for the following molecule: Cc1cnc(-c2ccncc2N2CCC(C(=O)N(C)C)CC2)s1
32

Give UniProtKB P08684 inhibition at 1 h, 10 µM for the following molecule: O=C(NC1CC1)C1CCN(c2cncnc2-c2ccccc2)CC1
50

----------
# Procedure Text: Lipophilicity, log D of compound at pH 7.4
# Test Context: buffer
Experimental Endpoint: logD
Give the figure by itself; no unit, no explanation.

Below are worked cases with known answers.
* CN(C)C(=O)C1CCN(c2cnccc2-n2cc(C(F)(F)F)cn2)CC1 | 2.1
* CN(C)C(=O)C1CCN(c2cnccc2-n2cccn2)CC1 | 1.1
* CN(C)C(=O)C1CCN(c2cncnc2-c2ccc(F)cc2)CC1 | 1.9
* CN(C)C(=O)C1CCN(c2cnccc2-c2ccccn2)CC1 | 1.2
* O=C(NC1CC1)C1CCN(c2cnccc2-c2ccccn2)CC1 | 1.3

Please report the measured logD for Cc1cnc(-c2ccncc2N2CCC(C(=O)N(C)C)CC2)s1
2

Please report the measured logD for O=C(NC1CC1)C1CCN(c2cncnc2-c2ccccc2)CC1
1.8

Please report the measured logD for CNC(=O)C1CCN(c2cncnc2-c2ccccc2)CC1
1.4

Please report the measured logD for O=C(NC1CC1)C1CCN(c2cnccc2-c2ccccc2)CC1
2.5

Please report the measured logD for Cc1cnn(-c2ccncc2N2CCC(C(=O)N(C)C)CC2)c1
1.6

Please report the measured logD for CN(C)C(=O)C1CCN(c2cncnc2-c2ccccc2)CC1
1.7

Please report the measured logD for O=C(Nc1ccccc1)C1CCN(c2cncnc2-c2ccccc2)CC1
2.7

Please report the measured logD for Cc1ccn(-c2ccncc2N2CCC(C(=O)N(C)C)CC2)n1
1.5

Please report the measured logD for CCNC(=O)C1CCN(c2cncnc2-c2ccccc2)CC1
1.8

Please report the measured logD for CN(C)C(=O)C1CCN(c2cnccc2-n2cc(C3CC3)cn2)CC1
2.1

Please report the measured logD for CN(C)C(=O)C1CCN(c2cnccc2-n2cc(Br)cn2)CC1
2.1

Please report the measured logD for CCN(C)C(=O)C1CCN(c2cncnc2-c2ccccc2)CC1
2.1

----------
# Assay System: CYP2C9 (Homo sapiens)
# Sequence (P11712 whole entry): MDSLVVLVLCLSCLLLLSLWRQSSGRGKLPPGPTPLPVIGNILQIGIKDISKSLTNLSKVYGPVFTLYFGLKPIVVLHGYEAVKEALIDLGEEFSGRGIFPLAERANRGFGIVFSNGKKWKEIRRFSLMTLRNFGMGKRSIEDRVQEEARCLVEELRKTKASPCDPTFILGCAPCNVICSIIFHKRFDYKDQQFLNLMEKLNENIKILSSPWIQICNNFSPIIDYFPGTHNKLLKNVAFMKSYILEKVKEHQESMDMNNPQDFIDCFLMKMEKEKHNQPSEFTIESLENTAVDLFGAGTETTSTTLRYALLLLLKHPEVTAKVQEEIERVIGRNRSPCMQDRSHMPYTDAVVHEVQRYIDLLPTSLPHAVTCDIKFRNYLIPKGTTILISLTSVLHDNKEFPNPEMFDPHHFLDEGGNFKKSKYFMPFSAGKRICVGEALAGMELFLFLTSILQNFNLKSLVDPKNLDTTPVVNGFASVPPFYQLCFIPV
# Procedure Text: Inhibition of human CYP2C9 at 10 uM incubated for 60 mins by LC/MS/MS analysis relative to control
# Format: ADME
Experimental Endpoint: inhibition at 1 h, 10 µM (%)
Number in %, nothing else.

Please report the measured inhibition at 1 h, 10 µM for Cc1cnn(-c2ccncc2N2CCC(C(=O)N(C)C)CC2)c1
19

----------
# Procedure Text: Drug concentration in brain of C57BL/6N mouse at 30 mg/kg,po and measured at 1 hrs by LC/MS/MS analysis
# Type: ADME, organism-based
# Test Context: read-out: Ct
Experimental Endpoint: concentration at 1 h (nM)
Number in nM, nothing else.

Please report the measured concentration at 1 h for Cc1cnn(-c2ccncc2N2CCC(C(=O)N(C)C)CC2)c1
102

----------
# Assay System: CYP3A4 (Homo sapiens)
# Sequence (P08684 whole entry): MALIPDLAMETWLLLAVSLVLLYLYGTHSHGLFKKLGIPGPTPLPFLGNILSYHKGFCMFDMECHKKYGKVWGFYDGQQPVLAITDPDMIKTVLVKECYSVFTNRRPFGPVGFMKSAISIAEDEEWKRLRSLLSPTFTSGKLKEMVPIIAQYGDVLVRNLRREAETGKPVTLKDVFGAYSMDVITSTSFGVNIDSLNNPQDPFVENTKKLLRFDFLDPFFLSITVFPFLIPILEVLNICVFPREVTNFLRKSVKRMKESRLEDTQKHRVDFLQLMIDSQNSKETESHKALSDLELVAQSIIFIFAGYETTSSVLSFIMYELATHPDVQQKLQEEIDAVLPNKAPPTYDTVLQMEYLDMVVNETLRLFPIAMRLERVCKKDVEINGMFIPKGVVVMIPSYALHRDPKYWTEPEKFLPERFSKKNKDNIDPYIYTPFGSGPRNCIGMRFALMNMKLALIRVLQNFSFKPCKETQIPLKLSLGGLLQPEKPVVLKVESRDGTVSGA
# Procedure Text: Inhibition of human CYP3A4 at 10 uM incubated for 60 mins by LC/MS/MS analysis relative to control
# Format: ADME
Parameter inhibition at 1 h, 10 µM: see the listing below.
Units required after the number.

Below are worked cases with known answers.
• O=C(Nc1ccccc1)C1CCN(c2cncnc2-c2ccccc2)CC1 = 84%
• CN(C)C(=O)C1CCN(c2cnccc2-n2cc(C3CC3)cn2)CC1 = 56%
• CNC(=O)C1CCN(c2cncnc2-c2ccccc2)CC1 = 31%

Please report the measured inhibition at 1 h, 10 µM for CN(C)C(=O)C1CCN(c2cnccc2-c2ccccn2)CC1
11%
